Where do these numbers come from? They come from paper PMC7854179.

test_system: T1, human PTPN21 PTP domain (residues 873-1174), PTP_(PTPN21) (human, UniProt Q16825 873-1174)
T1 sequence: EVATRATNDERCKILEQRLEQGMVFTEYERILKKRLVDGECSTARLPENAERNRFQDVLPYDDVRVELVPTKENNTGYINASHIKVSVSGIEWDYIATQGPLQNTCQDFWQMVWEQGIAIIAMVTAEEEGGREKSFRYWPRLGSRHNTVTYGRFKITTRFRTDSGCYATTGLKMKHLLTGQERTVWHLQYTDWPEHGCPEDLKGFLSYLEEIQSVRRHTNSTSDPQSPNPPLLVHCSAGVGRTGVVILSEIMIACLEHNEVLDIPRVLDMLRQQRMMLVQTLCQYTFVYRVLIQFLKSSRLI
experimental_protocol: ITC
pKd: −log10 of the molar value.
result_type: pKd

>>> value_reported("HPV18 E7 conserved region 3 (residues 54-105), CR3_(18E7) (domain or fragment) AEPQRHTMLCMCCKCEARIKLVVESSADDLRAFQQLFLNTLSFVCPWCASQQ")
8.27
